A collection of compounds and their measured Ki
Target: human FLAP (Homo sapiens (Human), UniProt P20292)
Sequence (P20292 whole entry): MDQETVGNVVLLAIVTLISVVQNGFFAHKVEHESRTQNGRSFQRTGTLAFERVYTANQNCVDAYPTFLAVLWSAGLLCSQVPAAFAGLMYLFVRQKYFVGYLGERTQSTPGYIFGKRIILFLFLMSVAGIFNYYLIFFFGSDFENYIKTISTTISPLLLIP
Assay: FLAP binding assay (HTRF format)
Settings: human FLAP wild type, HTRF format; average of two plates, duplicates
Structures can show the parent of a compound that is named as a salt.
Field: numeric (nM). Do not append units.

// solved cases for Ki follow
C[Si](C)(C)CCOCSc1ccccc1-c1ccc(-c2cnc(N)nc2)c(F)c1
104
Nc1cnc(-c2ccc(-c3ccccc3NS(=O)(=O)C3CCC3)cc2F)cn1
14
Nc1ccc(-c2ccc(-c3ccccc3S(=O)(=O)N3CCC(CCO)CC3)cc2F)cn1
4
Nc1cnc(-c2ccc(-c3ccccc3S(=O)(=O)N[C@H]3c4ccccc4C[C@@H]3O)cc2F)cn1
1
Nc1cnc(-c2ccc(-c3ccccc3S(=O)(=O)N3CC(O)C3)cc2F)cn1
3

**Q:** Hello, please tell me recorded Ki for this one: Nc1ncc(-c2ccc(-c3ccccc3Sc3cnccn3)cc2F)cn1 [Example 333, hydrochloride]
**A:** 45

**Q:** Hello, please tell me recorded Ki for this one: Nc1ncc(-c2ccc(-c3ccccc3S(=O)(=O)N3CCC[C@@H]3CO)cc2F)cn1 [Example 276, trifluoroacetic acid salt]
**A:** 23

**Q:** Hello, please tell me recorded Ki for this one: C[C@@H](CO)NS(=O)(=O)c1ccccc1-c1ccc(-c2cnc(N)nc2)c(F)c1 [Example 286, trifluoroacetic acid salt]
**A:** 142
